# assay.remarks: Selectivity index, ratio of CC50 for human WI38 cells to EC50 for BK polyomavirus ATCC VR837
# Assay type: toxicity, cell-based, WI-38
# measurement.context: read-out: Selectivity Index

molecule	selectivity ratio
CCCCCCCC/C=C\CCCCCCCC(=O)Nc1ncnc2c1ncn2CCOCP(=O)(O)O	58.9
CC(C)(C)C(=O)OCOP(=O)(COCCn1cnc2c(N)ncnc21)OCOC(=O)C(C)(C)C	5.7
O=c1[nH]cnc2c1ncn2[C@H]1CC[C@@H](CO)O1	1
Cc1cccc2c1OP(=O)(OC[C@H]1O[C@@H](n3cc(/C=C/Br)c(=O)[nH]c3=O)CC1O)OC2 (single isomer, unassigned)	2.3
Nc1nc2c(ncn2/C=C2/CC2(CO)CO)c(=O)[nH]1	1
Cc1cn([C@H]2C[C@H](N=[N+]=[N-])[C@@H](CO)O2)c(=O)[nH]c1=O	1
CC(C)OC(=O)OCOP(=O)(CO[C@H](C)Cn1cnc2c(N)ncnc21)OCOC(=O)OC(C)C	1

###

# assay.remarks: Cytotoxicity against human WI38 cells by neutral red assay
# Assay type: cell-based, WI-38
Response field class: string, computed from recorded CC50 by ranges I = under 3 µM, II = from 3 µM up to 200 µM, III = 200 µM and over

compound	answer.label
Nc1ncnc2c1ncn2/C=C1/CC1(CO)CO	III
Nc1ncnc2c1ncn2CCOCP(=O)(O)O [ADEFOVIR]	II
Nc1nc(=O)c2ncn(COCCOP3(=O)OCc4ccccc4O3)c2[nH]1 (configuration not stated)	II
CCCCCCCC/C=C\CCCCCCCCOC(=O)Nc1ncnc2c1ncn2CCOCP(=O)(O)O	III
Cc1cccc2c1OP(=O)(OC[C@H]1O[C@@H](n3cc(/C=C/Br)c(=O)[nH]c3=O)CC1O)OC2 (single isomer, unassigned)	II
CCCCCCCC/C=C\CCCCCCCC(=O)Nc1ncnc2c1ncn2CCOCP(=O)(O)O	II
CCCCCCCCCCCCCCCCOCCCOP(=O)(O)CO[C@H](CO)Cn1cnc2c(N)ncnc21	I
CC(C)(C)C(=O)OCOP(=O)(COCCn1cnc2c(N)ncnc21)OCOC(=O)C(C)(C)C [ADEFOVIR DIPIVOXIL]	II
CCCCCCCCCCCCCCCCCCOCCOP(=O)(O)CO[C@H](CO)Cn1cnc2c(N)ncnc21	I

###

# assay.remarks: Cytotoxicity against human WI38 cells by neutral red assay
# Type: cell-based, WI-38
measured.attribute: CC50

compound	reported.value
Nc1nc2c(ncn2/C=C2/CC2(CO)CO)c(=O)[nH]1	> 100 µM
Cc1cn([C@H]2C=C[C@@H](CO)O2)c(=O)[nH]c1=O	> 100 µM
Cc1cn([C@H]2C[C@H](N=[N+]=[N-])[C@@H](CO)O2)c(=O)[nH]c1=O	> 100 µM
CC(C)OC(=O)OCOP(=O)(CO[C@H](C)Cn1cnc2c(N)ncnc21)OCOC(=O)OC(C)C	> 50 µM
Nc1nc(O)c2ncn(/C=C3/CC3CO)c2n1 (stereo not drawn) [SYNGUANOL]	> 100 µM
CC(=O)OCC(CCn1cnc2cnc(N)nc21)COC(C)=O	> 0.78 µM
Nc1ccn([C@@H]2CS[C@H](CO)O2)c(=O)n1	> 100 µM
O=c1[nH]cnc2c1ncn2[C@H]1CC[C@@H](CO)O1	> 100 µM
